target: ETA (Oryctolagus cuniculus, UniProt A5A8K3); construct: The cells used were rabbit renal artery vascular smooth muscle cells; endogenous in cells; assay: Endothelin Receptor Binding Assay-A (ETA), intact cell binding of [125I]-ET-1; conditions: Table IIa; rabbit renal artery vascular smooth muscle cells; read-out: Binding Assay IC50 at Receptor Subtypes ETA
Sequence (A5A8K3 21-427): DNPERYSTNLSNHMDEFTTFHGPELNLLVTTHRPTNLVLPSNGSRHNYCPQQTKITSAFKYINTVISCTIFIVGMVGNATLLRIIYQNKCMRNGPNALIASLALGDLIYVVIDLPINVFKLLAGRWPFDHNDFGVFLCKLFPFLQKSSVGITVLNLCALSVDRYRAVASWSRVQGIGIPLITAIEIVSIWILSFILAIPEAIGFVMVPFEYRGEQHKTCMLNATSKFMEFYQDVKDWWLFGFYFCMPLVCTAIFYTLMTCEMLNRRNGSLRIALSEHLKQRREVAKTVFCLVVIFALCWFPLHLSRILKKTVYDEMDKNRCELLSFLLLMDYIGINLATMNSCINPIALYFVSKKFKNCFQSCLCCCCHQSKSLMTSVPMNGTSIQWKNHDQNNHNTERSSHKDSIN
Square brackets hold non-standard residues; d marks the D form. Peptide text beside a SMILES is read from it. dDip = N[C@@H](C(=O)O)C(c1ccccc1)c1ccccc1
Please provide measured IC50 for the entries that follow.
Number first, unit second.

Would you please look over these solved cases?
[
  {
    "molecule": "CC[C@H](C)[C@H](NC(=O)[C@H](CC(=O)O)NC(=O)[C@H](CC(C)C)NC(=O)[C@H](NC(C)=O)C(c1ccccc1)c1ccccc1)C(=O)N[C@H](C(=O)N[C@@H](Cc1c[nH]c2ccccc12)C(=O)O)C(C)C [Example 86, Ac--D--Dip--Leu--Asp--Ile--Val--Trp] (Ac-[dDip]LDIVW-OH)",
    "IC50": "97 nM"
  },
  {
    "molecule": "CC[C@H](C)[C@H](NC(=O)[C@H](CCCCN)NC(=O)[C@H](CC(C)C)NC(=O)[C@H](NC(C)=O)C(c1ccccc1)c1ccccc1)C(=O)N[C@H](C(=O)N[C@@H](Cc1c[nH]c2ccccc12)C(=O)O)[C@@H](C)CC [Example 69, Ac--D--Dip--Leu--Lys--Ile--Ile--Trp] (Ac-[dDip]LKIIW-OH)",
    "IC50": "480 nM"
  }
]

From here, focus on the item given below.
Query :: Entry CC[C@H](C)[C@H](NC(=O)[C@H](CC(=O)O)NC(=O)[C@H](CC(C)C)NC(=O)[C@@H](Cc1ccccc1)NC(C)=O)C(=O)N[C@@H](C)C(=O)N[C@@H](Cc1c[nH]c2ccccc12)C(=O)O [Example 82, Ac--D--Phe--Leu--Asp--Ile--Ala--Trp] (Ac-[dF]LDIAW-OH) : reported IC50 = ?
Result :: 8000 nM
